Origin of values: PubChem BioAssay AID1259407

Tested on: CCRIS mutagenicity, Ames/micronucleus/aberration tests
Assay: CCRIS mutagenicity studies
Conditions: Test System: AMES SALMONELLA TYPHIMURIUM; Strain/Indicator: TA1535; Metabolic Activation: HAMSTER, LIVER, S-9, AROCLOR 1254 (30%); Method: PREINCUBATION
Activity calls are given as the source filed them. No rule for the calls is given here.
Pick one and only one: T = active, F = inactive

// known answers, use as guide
- molSmiles: "CCc1cc(C(N)=S)ccn1"
  measurementTarget: "CCRIS mutagenicity, Ames/micronucleus/aberration tests"
  classAssignment: "F"
- molSmiles: "CC1CCCC1"
  measurementTarget: "CCRIS mutagenicity, Ames/micronucleus/aberration tests"
  classAssignment: "F"
- molSmiles: "CCCSC(=O)Cl"
  measurementTarget: "CCRIS mutagenicity, Ames/micronucleus/aberration tests"
  classAssignment: "T"
- molSmiles: "ClCc1ccccc1"
  measurementTarget: "CCRIS mutagenicity, Ames/micronucleus/aberration tests"
  classAssignment: "F"

**Q:** Answer briefly: the call reported for `Nc1cccc(N)c1` in this assay.
**A:** T

**Q:** Assay outcome for `Nc1ccccc1Cl` : what was it?
**A:** F

**Q:** What did this assay record as the result for `CC(C)CCCCCOC(=O)C[S][Sn]([CH3])([S]CC(=O)OCCCCCC(C)C)[S]CC(=O)OCCCCCC(C)C` ?
**A:** F

**Q:** Could you please tell me the result logged for `COC(=O)c1ccccc1O` in this assay?
**A:** F

###

Test system: CCRIS mutagenicity, Ames/micronucleus/aberration tests
Test: CCRIS mutagenicity studies
Details: Test System: AMES SALMONELLA TYPHIMURIUM; Strain/Indicator: TA100; Metabolic Activation: NONE; Method: STANDARD PLATE
Calls of active or inactive are those of the source. How the calls were made is not given here.
The reply should name one outcome from Yes (active), No (inactive)

**Q:** What classification did `COC1=CC(=O)c2c(nc(C)c3c2[nH]c2ccncc23)C1=O` end up with in this test?
**A:** Yes

###

System: CCRIS mutagenicity, Ames/micronucleus/aberration tests
Test: CCRIS mutagenicity studies
Conditions: Test System: AMES SALMONELLA TYPHIMURIUM; Strain/Indicator: TA98; Metabolic Activation: S-9; Method: STANDARD PLATE
From the text: The CCRIS database contains chemical records with carcinogenicity, mutagenicity, tumor promotion, and tumor inhibition test results. It was developed by the National Cancer Institute (NCI). Data are derived from studies cited in primary journals, current awareness tools, NCI reports, and other sources. Test results have been reviewed by experts in carcinogenesis and mutagenesis. CCRIS provides historical information from the years 1985 - 2011. It is no longer updated. […]
Activity calls are given as the source filed them. No rule for the calls is given here.
Returns: one label drawn from True = active, False = inactive

- compound: "CCCCCCCC/C=C\\CCCCCCCCCCCC(=O)NCCCCCCCCCCCCCCCCCC"
  measurementTarget: "CCRIS mutagenicity, Ames/micronucleus/aberration tests"
  classAssignment: "False"
- compound: "COc1ccc2c3c(cccc13)OC([N+](=O)[O-])=C2"
  measurementTarget: "CCRIS mutagenicity, Ames/micronucleus/aberration tests"
  classAssignment: "False"
- compound: "CCC(CCOCn1cc[n+](C)c1/C=N/O)[N+](=O)[O-] (configuration not stated)"
  measurementTarget: "CCRIS mutagenicity, Ames/micronucleus/aberration tests"
  classAssignment: "False"
- compound: "Cc1cc(-c2ccc(N)c(C)c2)ccc1N"
  measurementTarget: "CCRIS mutagenicity, Ames/micronucleus/aberration tests"
  classAssignment: "True"
- compound: "COC(=O)c1ccc(C(=O)OC)cc1"
  measurementTarget: "CCRIS mutagenicity, Ames/micronucleus/aberration tests"
  classAssignment: "False"
- compound: "C=CCN=C=S"
  measurementTarget: "CCRIS mutagenicity, Ames/micronucleus/aberration tests"
  classAssignment: "False"

From here, focus on the item given below.
**Q:** Field: outcome | Entry: `Nc1ccc(-c2ccc(N)cc2[N+](=O)[O-])cc1`
**A:** True

###

Test system: CCRIS mutagenicity, Ames/micronucleus/aberration tests
Test: CCRIS mutagenicity studies
Details: Test System: AMES SALMONELLA TYPHIMURIUM; Strain/Indicator: TA1537; Metabolic Activation: NONE; Method: PREINCUBATION
Excerpt: The CCRIS database contains chemical records with carcinogenicity, mutagenicity, tumor promotion, and tumor inhibition test results. It was developed by the National Cancer Institute (NCI). Data are derived from studies cited in primary journals, current awareness tools, NCI reports, and other sources. Test results have been reviewed by experts in carcinogenesis and mutagenesis. CCRIS provides historical information from the years 1985 - 2011. It is no longer updated. […]
Active and inactive are the calls of the source. The rule behind the calls is not given here.
assayEndpoint: mutagenic call

- molecule: "C1=CC2C3C=CC(C3)C2C1 (stereo not drawn)"
  measurementTarget: "CCRIS mutagenicity, Ames/micronucleus/aberration tests"
  valueMeasured: "inactive; negative"
- molecule: "COc1ccc(N)cc1"
  measurementTarget: "CCRIS mutagenicity, Ames/micronucleus/aberration tests"
  valueMeasured: "inactive; negative"
- molecule: "COC(=O)C(c1ccccc1)C1CCCCN1 (stereo not drawn)"
  measurementTarget: "CCRIS mutagenicity, Ames/micronucleus/aberration tests"
  valueMeasured: "inactive; negative"

###

System: CCRIS mutagenicity, Ames/micronucleus/aberration tests
Experiment: CCRIS mutagenicity studies
Details: Test System: AMES SALMONELLA TYPHIMURIUM; Strain/Indicator: TA98; Metabolic Activation: RAT, LIVER, S-9, PHENOBARBITAL AND 5,6-BENZOFLAVONE; Method: PREINCUBATION
The source made the active and inactive calls. The rule behind the calls is not given here.
Respond using exactly one of the listed classes: active, inactive

As a guide, the following entries are already answered.
- molSmiles: "N#CC1=C(C#N)C(=O)C(Cl)=C(Cl)C1=O"
  classAssignment: "inactive"
- molSmiles: "Nc1cccc(N)c1"
  classAssignment: "active"
- molSmiles: "Cc1ccc(N)cc1N"
  classAssignment: "active"

**Q:** Record request — test call for `CC1=CC(=O)c2c(O)cccc2C1=O`
**A:** inactive

###

System: CCRIS mutagenicity, Ames/micronucleus/aberration tests
Test: CCRIS mutagenicity studies
Conditions: Test System: AMES SALMONELLA TYPHIMURIUM; Strain/Indicator: TA1535; Metabolic Activation: NONE; Method: PREINCUBATION
Active and inactive are the calls of the source. How the calls were made is not given here.
Your reply should match one of these outcome classes. 1 (yes) for active, 0 (no) for inactive

Worked set:
- compound: "COC[CH2][Hg][Cl]"
  classAssignment: "0 (no)"
- compound: "OCC(O)CCl (centres undefined)"
  classAssignment: "1 (yes)"

Shift focus to the following entry.
**Q:** Hey, what did the test say about `ClCCCl` ?
**A:** 0 (no)

###

Test system: CCRIS mutagenicity, Ames/micronucleus/aberration tests
Experiment: CCRIS mutagenicity studies
Settings: Test System: AMES SALMONELLA TYPHIMURIUM; Strain/Indicator: TA100; Metabolic Activation: S-9; Method: STANDARD PLATE
Excerpt: The CCRIS database contains chemical records with carcinogenicity, mutagenicity, tumor promotion, and tumor inhibition test results. It was developed by the National Cancer Institute (NCI). Data are derived from studies cited in primary journals, current awareness tools, NCI reports, and other sources. Test results have been reviewed by experts in carcinogenesis and mutagenesis. CCRIS provides historical information from the years 1985 - 2011. It is no longer updated. […]
Calls of active or inactive are those of the source. How the calls were made is not given here.
Bench note: report the call from active, inactive

Before answering, review these 4 worked examples.
- molSmiles: "CC(C)CN(C(=O)CCCl)c1snc2ccccc12"
  measurementTarget: "CCRIS mutagenicity, Ames/micronucleus/aberration tests"
  classAssignment: "inactive"
- molSmiles: "Nc1snc2cc(Cl)ccc12"
  measurementTarget: "CCRIS mutagenicity, Ames/micronucleus/aberration tests"
  classAssignment: "active"
- molSmiles: "N#Cc1ccc(/C=C\\c2ccc([N+](=O)[O-])cc2)cc1"
  measurementTarget: "CCRIS mutagenicity, Ames/micronucleus/aberration tests"
  classAssignment: "active"
- molSmiles: "COc1cccc2c1cc([N+](=O)[O-])c1c(C(=O)O)cc3c(c12)OCO3"
  measurementTarget: "CCRIS mutagenicity, Ames/micronucleus/aberration tests"
  classAssignment: "active"

Now look at this entry.
**Q:** How was `C=CCN=C=S` classified in this test?
**A:** inactive

###

Test system: CCRIS mutagenicity, Ames/micronucleus/aberration tests
Assay: CCRIS mutagenicity studies
Conditions: End Point: IN VITRO CHROMOSOMAL ABERRATIONS; Test System: CHL CELLS; Metabolic Activation: NONE
Activity calls are given as the source filed them. The rule behind the calls is not given here.
Form entry, call: pick from active, inactive

- molSmiles: "Nc1cccc(N)c1"
  classAssignment: "active"
- molSmiles: "CN(C)N"
  classAssignment: "active"
- molSmiles: "Nc1c(Cl)cc(Cl)cc1Cl"
  classAssignment: "inactive"
- molSmiles: "Cc1ccc(N)cc1N"
  classAssignment: "active"

From here, focus on the item given below.
**Q:** Tell me the recorded outcome of this test for `O=Nc1ccc(NO)cc1` .
**A:** active
